System: Huh-7 cells
Test: Evaluation of viability using Huh-7 cells (Test Example 2)
Type: cell-based
Details: Huh-7 cells; Luc DNA-encapsulated lipid nanoparticles, final concentration 0.1 μg/mL; PBS group = 100%, dead cell group = 0%
// reported Viability 0.1 μg/ml (%) for each item listed
Return type: number; implicit unit %.

Reference set (5 entries):
Compound: CCCCCCCOC(=O)CCCCC(=O)OCC(COC(=O)CCCCN(C)C)(COC(=O)CC(CCCCC)CCCCC)COC(=O)CC(CCCCC)CCCCC [Example 18]
Unit string: %
Viability 0.1 μg/ml (%): 110
--
Compound: CCCCCCCCCCOC(=O)CCCCC(=O)OCC(COC(=O)CCCN(C)C)(COC(=O)CC(CCCCC)CCCCC)COC(=O)CC(CCCCC)CCCCC [Example 51]
Unit string: %
Viability 0.1 μg/ml (%): 104
--
Compound: CCCCCCCOC(=O)CCCCC(=O)OCC(COC(=O)CCCCC(=O)OCCCCCCC)(COC(=O)CCCN(C)C)COC(=O)CC(CCC)CCCCCCC (stereo not drawn) [Example 28]
Unit string: %
Viability 0.1 μg/ml (%): 113
--
Compound: CCCCCCCOC(=O)CCCCC(=O)OCC(COC(=O)CCCCC(=O)OCCCCCCC)(COC(=O)CCCN(C)CCO)COC(=O)CC(CCCCC)CCCCC [Example 93]
Unit string: %
Viability 0.1 μg/ml (%): 105
--
Compound: CCCCCCCCCOC(=O)CCCCC(=O)OCC(COC(=O)CCCCC(=O)OCCCCCCCCC)(COC(=O)CCCCC(=O)OCCCCCCCCC)COC(=O)CCCN(C)C [Example 41]
Unit string: %
Viability 0.1 μg/ml (%): 111

Log: Huh-7 cells, compound CCCCCC(CCCCC)COC(=O)CCC(=O)OCC(COC(=O)CCCN(C)C)(COC(=O)CCC(=O)OCC(CCCCC)CCCCC)COC(=O)CCC(=O)OCC(CCCCC)CCCCC [Example 37] , Viability 0.1 μg/ml (%) = 111

Entry CCCCCCCCCCOC(=O)CCCCC(=O)OCC(COC(=O)CCCCC(=O)OCCCCCCCCCC)(COC(=O)CCCN(C)C)COC(=O)CC(CCCCC)CCCCC [Example 45] : Viability 0.1 μg/ml (%) on Huh-7 cells = 108

Viability 0.1 μg/ml (%) value, target or system Huh-7 cells, for CCCCCCCOC(=O)CCCCC(=O)OCC(COC(=O)CCCCC(=O)OCCCCCCC)(COC(=O)CCCN(C)C)COC(=O)CC(CCCCC)CCCCC [Example 13] : 112

For CCCCC/C=C\C/C=C\CCCCCCCCC(CCCCCCCC/C=C\C/C=C\CCCCC)OC(=O)CCCN(C)C [MC3, reference compound] on Huh-7 cells, measured Viability 0.1 μg/ml (%) was 97
